# measuredTarget: mTOR/FRAP1 (Homo sapiens)
# assayComment: In vitro kinase activity assay
# experimentalParameters: mTOR/FRAP1 IC50, 10-dose, three-fold serial dilution from 100 μM
Note to self: IC50 under 10 µM means Met, ties and anything higher get Not met.

Below, 5 compounds whose answers are already recorded.
# compound, categoryLabel
rows = [
    ("Cc1ccc2c(=O)c(O)c(-c3cccc(Cl)c3)oc2c1", "Not met"),
    ("O=c1c(O)c(-c2ccc(O)c(O)c2)oc2cc(O)ccc12 [F0, 3´,4´,7-trihydroxyflavonol, reference compound]", "Not met"),
    ("O=c1c(O)c(-c2cccc(Cl)c2)oc2ccc(F)cc12", "Not met"),
    ("COc1cccc(-c2oc3cc(C)ccc3c(=O)c2O)c1", "Met"),
    ("Cc1cc2oc(-c3ccc(OCc4ccccc4)cc3)c(O)c(=O)c2cc1Cl", "Met"),
]

// next entry
Query: Given O=c1c(O)c(-c2ccccc2)oc2cc(Br)ccc12 , is recorded IC50 strictly lower than 10 µM?
Result: Not met

====

# maps each entry to its pIC50
# measuredTarget: CDK2/Cyclin A (Homo sapiens, UniProt P24941)
# assayComment: In vitro kinase activity assay
# experimentalParameters: 10-dose, three-fold serial dilution from 100 μM
Scale: pIC50 equals -log10([C]), with [C] in mol/L.

# compound, measuredTarget, pIC50
measured = [
    ("Cc1ccc2c(=O)c(O)c(-c3cccc(Cl)c3)oc2c1", "CDK2/Cyclin A (Homo sapiens, UniProt P24941)", 5.15),
    ("O=c1c(O)c(-c2cccc(Cl)c2)oc2ccc(F)cc12", "CDK2/Cyclin A (Homo sapiens, UniProt P24941)", 5.34),
    ("Cc1ccc2c(=O)c(O)c(-c3ccc(C(C)(C)C)cc3)oc2c1", "CDK2/Cyclin A (Homo sapiens, UniProt P24941)", 4.49),
]

Let us move to another entry and its pIC50.
Query: Reported pIC50, compound O=c1c(O)c(-c2ccc(O)c(O)c2)oc2cc(O)ccc12 [F0, 3´,4´,7-trihydroxyflavonol, reference compound] : ____
Result: 5.58

====

selectivity index overview
# Test system: A375 cells
# assayComment: MTT cytotoxicity / cell viability assay, A375
# Format: cell-based, human
# experimentalParameters: IC50 melanocytes / IC50 A375

# compound, measValue
rows = [
    ("Cc1ccc2c(=O)c(O)c(-c3ccc(C(C)(C)C)cc3)oc2c1", 2.4),
    ("Cc1cc2oc(-c3ccc(OCc4ccccc4)cc3)c(O)c(=O)c2cc1Cl", 1.7),
    ("COc1cccc(-c2oc3cc(C)ccc3c(=O)c2O)c1", 2.2),
    ("O=c1c(O)c(-c2cc(C(F)(F)F)cc(C(F)(F)F)c2)oc2ccccc12", 3.7),
    ("O=c1c(O)c(-c2ccc(O)c(O)c2)oc2cc(O)ccc12 [F0, 3´,4´,7-trihydroxyflavonol, reference compound]", 1.6),
]

# ---- query compound ----
Query: Entry O=c1c(O)c(-c2cccc(Cl)c2)oc2ccc(F)cc12 has what selectivity index?
Result: 2.5

====

# System: A431 cells
# assayComment: MTT cytotoxicity / cell viability assay, A431
# Format: cell-based, human
# experimentalParameters: Homo sapiens, A-431, 48 h
endpointName: pIC50
Answer as the number alone; pIC50 is minus log10 of concentration in mol/L.

Example entries and their recorded answers appear below.
# compound, measuredTarget, pIC50
rows = [
    ("O=c1c(O)c(-c2ccccc2)oc2ccccc12 [F1, 3-Hydroxy-2-phenyl-4H-chromen-4-one]", "A431 cells", 4.82),
    ("COc1ccc(-c2oc3cc(C)ccc3c(=O)c2O)c(Br)c1OC", "A431 cells", 4.44),
    ("Cc1ccc2c(=O)c(O)c(-c3cccc(Cl)c3)oc2c1", "A431 cells", 5.08),
    ("O=c1c(O)c(-c2cccc(Cl)c2)oc2ccc(F)cc12", "A431 cells", 5.00),
    ("COc1cccc(-c2oc3cc(C)ccc3c(=O)c2O)c1", "A431 cells", 5.04),
]

Query: Entry under review: COc1cc(OC)c(-c2oc3ccccc3c(=O)c2O)cc1OC . Reported pIC50?
Result: 4.92

Query: Endpoint output: pIC50 of O=c1c(O)c(-c2ccccc2)oc2cc(Br)ccc12 . Value?
Result: 5.28

Query: For the compound O=c1c(O)c(-c2ccc(SC(F)(F)F)cc2)oc2ccccc12 , what pIC50 is on record?
Result: 5.01

Query: Sample Cc1ccc2c(=O)c(O)c(-c3ccc(C(C)(C)C)cc3)oc2c1 — what was its pIC50?
Result: 5.33

Query: For O=c1c(O)c(-c2cc(C(F)(F)F)cc(C(F)(F)F)c2)oc2ccccc12 , what is its reported pIC50?
Result: 5.07

Query: Entry O=c1c(O)c(-c2ccc(Br)cc2Cl)oc2ccccc12 has what pIC50?
Result: 4.21
